systemUnderTest: BMPR2 GBD-Fc (WT) (human) (UniProt Q13873)
Sequence (Q13873 whole entry): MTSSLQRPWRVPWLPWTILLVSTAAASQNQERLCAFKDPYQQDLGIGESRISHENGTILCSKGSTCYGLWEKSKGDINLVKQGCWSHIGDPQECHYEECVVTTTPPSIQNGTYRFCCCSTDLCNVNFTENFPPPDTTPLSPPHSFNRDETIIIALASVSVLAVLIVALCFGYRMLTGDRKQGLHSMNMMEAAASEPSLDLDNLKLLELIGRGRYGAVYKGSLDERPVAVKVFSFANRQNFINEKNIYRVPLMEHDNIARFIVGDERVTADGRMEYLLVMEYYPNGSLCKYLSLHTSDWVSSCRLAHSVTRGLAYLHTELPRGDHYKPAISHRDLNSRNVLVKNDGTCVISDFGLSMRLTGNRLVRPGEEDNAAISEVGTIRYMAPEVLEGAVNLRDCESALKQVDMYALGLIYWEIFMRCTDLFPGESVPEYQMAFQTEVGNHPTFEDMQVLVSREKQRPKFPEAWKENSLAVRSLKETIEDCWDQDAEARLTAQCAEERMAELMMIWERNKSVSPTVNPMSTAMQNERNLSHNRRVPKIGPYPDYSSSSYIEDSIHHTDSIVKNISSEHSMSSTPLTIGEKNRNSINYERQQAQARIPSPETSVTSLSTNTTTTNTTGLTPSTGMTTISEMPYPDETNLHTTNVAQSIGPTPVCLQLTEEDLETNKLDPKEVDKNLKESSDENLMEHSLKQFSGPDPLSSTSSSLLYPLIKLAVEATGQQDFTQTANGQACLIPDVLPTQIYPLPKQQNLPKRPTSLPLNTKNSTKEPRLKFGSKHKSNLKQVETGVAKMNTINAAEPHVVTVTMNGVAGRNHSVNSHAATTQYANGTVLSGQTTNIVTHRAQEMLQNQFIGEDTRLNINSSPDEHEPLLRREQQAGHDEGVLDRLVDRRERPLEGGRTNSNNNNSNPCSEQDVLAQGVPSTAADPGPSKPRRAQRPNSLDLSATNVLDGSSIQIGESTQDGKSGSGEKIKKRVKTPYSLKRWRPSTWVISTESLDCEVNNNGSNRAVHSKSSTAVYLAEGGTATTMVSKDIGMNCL
assayOverview: SPR; BIAcore 3000; receptor-Fc (about 500 RU BMPR2-Fc WT or variants, 150 RU ACVR2A-Fc) captured on immobilised anti-human IgG (Fc), CM5 chip; single injections of 80 nM GF, single curve fits, averages of two independent injections; 25 °C; HBS/EPS (0.01 M Hepes, 0.5 M NaCl, 3 mM EDTA, 0.005% Tween 20, pH 7.4) with 0.1% bovine serum albumin; 50 μl/min; 1:1 binding model, KD = kd/ka
measurementName: koff (s⁻¹)
The figure you give is taken to be in s⁻¹; do not add the unit.

BMP10 (ligand) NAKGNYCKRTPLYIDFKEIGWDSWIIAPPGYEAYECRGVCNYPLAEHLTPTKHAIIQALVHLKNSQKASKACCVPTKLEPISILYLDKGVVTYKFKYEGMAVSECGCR has a reported koff of 0.00019

BMP15 (ligand) QADGISAEVTASSSKHSGPENNQCSLHPFQISFRQLGWDHWIIAPPFYTPNYCKGTCLRVLRDGLNSPNHAIIQNLINQLVDQSVPRPSCVPYKYVPISVLMIEANGSILYKEYEGMIAESCTCR has a reported koff of 0.0021

Nodal (ligand) HHLPDRSQLCRKVKFQVDFNLIGWGSWIIYPKQYNAYRCEGECPNPVGEEFHPTNHAYIQSLLKRYQPHRVPSTCCAPVKTKPLSMLYVDNGRVLLDHHKDMIVEECGCL has a reported koff of 0.00014

activin B (ligand) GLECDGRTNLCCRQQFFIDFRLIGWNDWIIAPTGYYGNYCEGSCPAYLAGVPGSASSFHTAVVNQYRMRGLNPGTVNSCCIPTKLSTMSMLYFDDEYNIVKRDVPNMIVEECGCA has a reported koff of 0.0018
